test: Compound was evaluated for pKa; type: physicochemical
Label rule, in plain words: pKa of 10 and up is TRUE, under 10 is FALSE.

Challenge: Assess whether reported pKa for `COC(=O)Nc1cc(Cl)ccc1O` sits at 10 or higher.
Response given: TRUE

More entries:
Challenge: Assess whether reported pKa for `Cl.Nc1ccc(OC(=O)Nc2cc(Cl)ccc2O)cc1` sits at 10 or higher.
Response given: TRUE

Challenge: Assess whether reported pKa for `O=C(Nc1cc(Cl)ccc1O)Oc1cccc(Cl)c1` sits at 10 or higher.
Response given: FALSE

Challenge: Assess whether reported pKa for `CC(=O)Nc1cccc(OC(=O)Nc2cc(Cl)ccc2O)c1` sits at 10 or higher.
Response given: FALSE

Challenge: Assess whether reported pKa for `O=C(Nc1cc(Cl)ccc1O)OCC(Cl)(Cl)Cl` sits at 10 or higher.
Response given: TRUE

Challenge: Assess whether reported pKa for `CCOC(=O)Nc1cc(Cl)ccc1O` sits at 10 or higher.
Response given: TRUE

Challenge: Assess whether reported pKa for `O=C(Nc1cc(Cl)ccc1O)OCCCl` sits at 10 or higher.
Response given: TRUE

Challenge: Assess whether reported pKa for `O=C(Nc1cc(Cl)ccc1O)Oc1cccc(C(F)(F)F)c1` sits at 10 or higher.
Response given: FALSE

Challenge: Assess whether reported pKa for `O=C(Nc1cc(Cl)ccc1O)OCC(F)(F)F` sits at 10 or higher.
Response given: TRUE

Challenge: Assess whether reported pKa for `C#CCOC(=O)Nc1cc(Cl)ccc1O` sits at 10 or higher.
Response given: TRUE

Challenge: Assess whether reported pKa for `CC#CCOC(=O)Nc1cc(Cl)ccc1O` sits at 10 or higher.
Response given: TRUE

Challenge: Assess whether reported pKa for `CC(=O)Nc1ccc(OC(=O)Nc2ccc(C(=O)c3ccccc3)cc2O)cc1` sits at 10 or higher.
Response given: FALSE
